The reported measurements were obtained from patent US20240116985A1.

Target: full-length beta-Catenin (Uniprot ID P35222) (Homo sapiens, UniProt P35222)
Construct: 10 nM full-length beta-Catenin (Uniprot ID P35222)
Sequence (P35222 whole entry): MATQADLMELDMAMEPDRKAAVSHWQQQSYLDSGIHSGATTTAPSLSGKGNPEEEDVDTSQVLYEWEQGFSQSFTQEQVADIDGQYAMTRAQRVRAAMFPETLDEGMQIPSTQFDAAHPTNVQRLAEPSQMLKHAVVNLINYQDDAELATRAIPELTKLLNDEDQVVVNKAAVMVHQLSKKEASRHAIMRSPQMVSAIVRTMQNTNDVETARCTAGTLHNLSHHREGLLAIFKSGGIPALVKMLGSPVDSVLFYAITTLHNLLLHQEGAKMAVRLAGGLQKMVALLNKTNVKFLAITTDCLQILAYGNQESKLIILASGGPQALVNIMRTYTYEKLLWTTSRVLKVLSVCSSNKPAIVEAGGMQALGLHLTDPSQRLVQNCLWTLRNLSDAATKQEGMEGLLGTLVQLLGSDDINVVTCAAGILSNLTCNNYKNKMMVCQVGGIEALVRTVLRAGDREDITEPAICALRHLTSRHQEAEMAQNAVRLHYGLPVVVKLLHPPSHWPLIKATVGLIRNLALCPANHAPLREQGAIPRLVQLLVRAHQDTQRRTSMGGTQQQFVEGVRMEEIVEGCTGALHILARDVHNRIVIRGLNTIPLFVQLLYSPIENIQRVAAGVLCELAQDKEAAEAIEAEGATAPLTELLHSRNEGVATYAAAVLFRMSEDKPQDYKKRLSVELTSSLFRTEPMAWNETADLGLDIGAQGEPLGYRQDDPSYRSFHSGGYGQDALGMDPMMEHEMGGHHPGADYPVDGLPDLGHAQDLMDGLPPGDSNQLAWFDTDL
Assay: Fluorescence polarization IC50 (beta-catenin / 5FAM-TCF4 10-53 competition)
Assay type: binding
Details: fluorescence polarization; read-out: beta-Catenin FP IC50
measurement_type: pIC50
# pIC50 = -log10(concentration in molar units)

| compound | system_name | pIC50 |
| --- | --- | --- |
| CC(=O)N1CCC[C@]12CC=CCCCC1(CCCC=CCCCOC(=O)N3CC[C@@](C(=O)N[C@@H](Cc4ccsc4)C(=O)N[C@@H](Cc4csc5ccccc45)C(=O)N[C@@H](CCC(N)=O)C(N)=O)(C3)NC(=O)[C@H](CC(C)C)NC(=O)[C@H](Cc3ccccc3)NC(=O)[C@H](C)NC(=O)[C@H](C)NC(=O)[C@H](CC(=O)O)NC(=O)[C@H](CC(=O)O)NC1=O)NC(=O)[C@H](CC(C)C)NC(=O)[C@H](CC(=O)O)NC2=O (stereo partly drawn) | full-length beta-Catenin (Uniprot ID P35222) (Homo sapiens, UniProt P35222) | 7.89 |
| CC(=O)N1CCC[C@]12CC=CCCCC1(CCCC=CCCCOC(=O)N3CC(C(=O)N[C@@H](Cc4ccccc4C(F)(F)F)C(=O)N[C@@H](Cc4csc5ccccc45)C(=O)N[C@@H](CCC(N)=O)C(N)=O)(C3)NC(=O)[C@H](CC(C)C)NC(=O)[C@H](Cc3ccccc3)NC(=O)[C@H](C)NC(=O)C(C)(C)NC(=O)[C@H](Cc3cccc(C(=O)O)c3)NC(=O)[C@H](CC(=O)O)NC1=O)NC(=O)[C@H](CC(C)(C)C)NC(=O)[C@H](CC(=O)O)NC2=O (stereo partly drawn) [I-2614] | full-length beta-Catenin (Uniprot ID P35222) (Homo sapiens, UniProt P35222) | 7.01 |
| CC(=O)N1CCC[C@]12CCCCCCC1(CCCCCCCCOC(=O)N3CC[C@@](C(=O)N[C@@H](Cc4ccsc4)C(=O)N[C@@H](Cc4csc5ccccc45)C(=O)N[C@@H](CC(C)C)C(N)=O)(C3)NC(=O)[C@H](CC(C)C)NC(=O)[C@H](Cc3ccccc3)NC(=O)[C@H](C)NC(=O)[C@H](C)NC(=O)[C@H](CN(CC(=O)O)CC(F)(F)F)NC(=O)[C@H](CC(=O)O)NC1=O)NC(=O)[C@H](CC(C)(C)C)NC(=O)[C@H](CC(=O)O)NC2=O (stereo partly drawn) | full-length beta-Catenin (Uniprot ID P35222) (Homo sapiens, UniProt P35222) | 6.10 |
| CC(=O)N1CCC[C@]12CC=CCCCC1(CCCC=CCCCOC(=O)N3CC[C@@](C(=O)N[C@@H](Cc4ccccc4C(F)(F)F)C(=O)N[C@@H](Cc4csc5ccccc45)C(=O)N[C@@H](C)C(N)=O)(C3)NC(=O)[C@H](CC(C)C)NC(=O)[C@H](Cc3ccccc3)NC(=O)[C@H](C)NC(=O)[C@H]([C@@H](C)O)NC(=O)[C@H](Cc3cccc(C(=O)O)c3)NC(=O)[C@H](CC(=O)O)NC1=O)NC(=O)[C@H](CC(C)(C)C)NC(=O)[C@H](CC(=O)O)NC2=O (stereo partly drawn) | full-length beta-Catenin (Uniprot ID P35222) (Homo sapiens, UniProt P35222) | 7.25 |
| CC(=O)N1CCC[C@]12CC=CCCCC1(CCCC=CCCCOC(=O)N3CC[C@@](C(=O)N[C@@H](Cc4ccccc4Cl)C(=O)N[C@@H](Cc4csc5ccccc45)C(=O)N[C@@H](CO)C(N)=O)(C3)NC(=O)[C@H](CC(C)C)NC(=O)[C@H](Cc3ccccc3)NC(=O)[C@H](C)NC(=O)C(C)(C)NC(=O)[C@H](Cc3cccc(C(=O)O)c3)NC(=O)[C@H](CC(=O)O)NC1=O)NC(=O)[C@H](CC(C)(C)C)NC(=O)[C@H](CC(=O)O)NC2=O (stereo partly drawn) [I-1899] | full-length beta-Catenin (Uniprot ID P35222) (Homo sapiens, UniProt P35222) | 7.55 |
| CNC(=O)C[C@@H]1NC(=O)C2(CCCC=CCCCCCC[C@@](C)(C(=O)N[C@@H](Cc3ccccc3)C(=O)N[C@@H](Cc3csc4ccccc34)C(=O)N[C@@H](CCC(N)=O)C(N)=O)NC(=O)[C@H](C(C)C)NC(=O)[C@H](Cc3ccccc3)NC(=O)[C@H](C)NC(=O)[C@H](C)NC(=O)[C@H](CC(=O)O)NC1=O)CCCC=CC[C@]1(CCCN1C(C)=O)C(=O)N[C@@H](CC(=O)O)C(=O)N[C@@H](C)C(=O)N2 (stereo partly drawn) | full-length beta-Catenin (Uniprot ID P35222) (Homo sapiens, UniProt P35222) | 5.30 |
| CC(C)C[C@H](NC(=O)[C@]12CCN(C1)C(=O)OCCCCCCCCC1(CCCCCCc3ccccc3C(=O)N3CCC[C@@]3(C)C(=O)N[C@@H](CC(=O)O)C(=O)N1)C(=O)N[C@@H](C)C(=O)N[C@@H](CC(=O)O)C(=O)N[C@@H](Cc1cccc(C(=O)O)c1)C(=O)N[C@@H](C)C(=O)N[C@@H](C)C(=O)N[C@@H](Cc1ccccc1)C(=O)N2)C(=O)N[C@@H](Cc1ccsc1)C(=O)N[C@@H](Cc1csc2ccccc12)C(=O)N[C@@H](CCC(N)=O)C(N)=O (stereo partly drawn) | full-length beta-Catenin (Uniprot ID P35222) (Homo sapiens, UniProt P35222) | 6.04 |
| CC[C@H](C)[C@@H]1NC(=O)[C@H](CC(=O)O)NC(=O)[C@]2(CC=CCCCC3(CCCC=CCCCCCC[C@@](C)(C(=O)N[C@@H](Cc4ccccc4)C(=O)N[C@@H](Cc4csc5ccccc45)C(=O)N[C@@H](Cc4ccccc4)C(N)=O)NC(=O)[C@H](CCC(N)=O)NC(=O)[C@H](Cc4ccccc4)NC(=O)[C@H](C)NC(=O)[C@H](C)NC(=O)[C@H](CCC(=O)O)NC(=O)[C@H](CC(=O)O)NC3=O)NC1=O)CCCN2C(C)=O (stereo partly drawn) | full-length beta-Catenin (Uniprot ID P35222) (Homo sapiens, UniProt P35222) | 6.77 |

Value lookup for pIC50; key = CC(=O)N1CCC[C@]12CC=CCCCC1(CCCC=CCCCOC(=O)N3CC[C@@](C(=O)N[C@@H](Cc4ccsc4)C(=O)N[C@@H](Cc4csc5ccccc45)C(=O)N[C@@H](CC(C)(C)C)C(N)=O)(C3)NC(=O)[C@H](CC(C)C)NC(=O)[C@H](Cc3ccccc3)NC(=O)[C@H](C)NC(=O)[C@H](CCC(N)=O)NC(=O)[C@H](Cc3cccc(C(=O)O)c3)NC(=O)[C@H](CC(=O)O)NC1=O)NC(=O)[C@H](CC(C)(C)C)NC(=O)[C@H](CC(=O)O)NC2=O (stereo partly drawn) 7.66

----------
Reported pIC50 values for a set of compounds
Biological target: full-length beta-Catenin (Uniprot ID P35222) (Homo sapiens)
Construct: 10 nM full-length beta-Catenin (Uniprot ID P35222)
Experiment: Fluorescence polarization IC50 (beta-catenin / 5FAM-TCF4 10-53 competition)
Type: binding
Conditions: fluorescence polarization; read-out: beta-Catenin FP IC50
# pIC50 = -log10(concentration in molar units)

Some solved cases for reference:
| compound | system_name | measurement_type | value_observed |
| --- | --- | --- | --- |
| CC(=O)N1CCC[C@]12CC=CCCCC1(CCCC=CCCCOC(=O)N3CC[C@@](C(=O)N[C@@H](Cc4ccsc4)C(=O)N[C@@H](Cc4csc5ccccc45)C(=O)N[C@@H](CCC(N)=O)C(N)=O)(C3)NC(=O)[C@H](CCO)NC(=O)[C@H](Cc3cccc(C(=O)O)c3)NC(=O)[C@H](C)NC(=O)[C@H](C)NC(=O)[C@H](Cc3ccc(O)cc3)NC(=O)[C@H](CC(=O)O)NC1=O)NC(=O)[C@H](CC(C)(C)C)NC(=O)[C@H](CC(=O)O)NC2=O (some centres unmarked) [I-2124] | full-length beta-Catenin (Uniprot ID P35222) (Homo sapiens) | pIC50 | 7.54 |
| CC(=O)N1CCC[C@]12CC=CCCCC1(CCCC=CCCCOC(=O)N3CC[C@@](C(=O)N[C@@H](Cc4ccsc4)C(=O)N[C@@H](Cc4ccc5ccccc5c4)C(=O)N[C@@H](C)C(N)=O)(C3)NC(=O)[C@H](C(C)C)NC(=O)[C@H](Cc3ccccc3)NC(=O)[C@H](C)NC(=O)[C@H](CCC(N)=O)NC(=O)[C@H](Cc3cccc(C(=O)O)c3)NC(=O)[C@H](CC(=O)O)NC1=O)NC(=O)[C@H](CC(C)(C)C)NC(=O)[C@H](CC(=O)O)NC2=O (some centres unmarked) | full-length beta-Catenin (Uniprot ID P35222) (Homo sapiens) | pIC50 | 7.74 |
| CC(=O)N1CCC[C@]12CC=CCCCC1(CCCC=CCCCOC(=O)N3CC[C@@](C(=O)N[C@@H](Cc4ccsc4)C(=O)N[C@@H](Cc4csc5ccccc45)C(=O)N[C@@H](CO)C(N)=O)(C3)NC(=O)[C@H](Cc3ccccc3)NC(=O)[C@H](Cc3ccccc3)NC(=O)[C@H](C)NC(=O)[C@H](C)NC(=O)[C@H](Cc3ccccc3C(=O)O)NC(=O)[C@H](CC(=O)O)NC1=O)NC(=O)[C@H](CC(C)(C)C)NC(=O)[C@H](CC(=O)O)NC2=O (single isomer, unassigned) [I-1665] | full-length beta-Catenin (Uniprot ID P35222) (Homo sapiens) | pIC50 | 7.77 |
| CC(=O)N1CCC[C@]12CC=CCCCC1(CCCC=CCCCOC(=O)N3CC[C@@](C(=O)N[C@@H](Cc4ccsc4)C(=O)N[C@@H](Cc4csc5ccccc45)C(=O)N[C@@H](CCC(N)=O)C(N)=O)(C3)NC(=O)[C@H](CC(C)C)NC(=O)[C@H](Cc3ccccc3)NC(=O)[C@H](C)NC(=O)[C@H](C)NC(=O)[C@H](CCN(CC(=O)O)C(=O)CN3CCN(C)CC3)NC(=O)[C@H](CC(=O)O)NC1=O)NC(=O)[C@H](CC(C)(C)C)NC(=O)[C@H](CC(=O)O)NC2=O (some centres unmarked) | full-length beta-Catenin (Uniprot ID P35222) (Homo sapiens) | pIC50 | 7.92 |

Value lookup for pIC50; key = CCS(=O)(=O)N1CCN(C(=O)CC[C@@H]2NC(=O)[C@H](Cc3cccc(C(=O)O)c3)NC(=O)[C@H](CC(=O)O)NC(=O)C3(CCCC=CCCCOC(=O)N4CC[C@@](C(=O)N[C@@H](Cc5ccccc5C(F)(F)F)C(=O)N[C@@H](Cc5csc6ccccc56)C(=O)N[C@@H](C)C(N)=O)(C4)NC(=O)[C@H](CC(C)C)NC(=O)[C@H](Cc4ccccc4)NC(=O)[C@H](C)NC2=O)CCCC=CC[C@]2(CCCN2C(C)=O)C(=O)N[C@@H](CC(=O)O)C(=O)N[C@@H](CC(C)(C)C)C(=O)N3)CC1 (some centres unmarked) 8.30
